Origin of the recorded values: paper PMC7533328

Study system: ScCsoR (Streptomyces coelicolor M145)
Sequence: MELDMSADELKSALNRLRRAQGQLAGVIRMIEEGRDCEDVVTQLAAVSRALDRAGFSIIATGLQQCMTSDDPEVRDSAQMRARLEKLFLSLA
Protocol notes: EMSA
Measurement conditions: 20 mM Tris-HCl pH 8.0, 2 mM EDTA, 20 mM KCl, 0.5 mM DTT (or 1-3 mM HSnH), 4% Ficoll-400, 1 nM probe, 25 C, 15 min
Parameter measured: binding

Some sequences with known binding results, for comparison:
{"Sequence data": "CGACGACGGTGAACTCGGCCAGGCGGGCCGCCGCCTGCCCGGTGGTCAGTGCGGTGGCGGTTGCTGCGGGGGTGTTCACGGAGCGAGACCTTTCTCGTTGTTCGTCCCCCCGCGCGGTAGGATACCCGCGGGGGTATGTGGGGTTCGGTGAGGTATCGGGTGGAGGAGAGGGAGAAGCGTGGAGCTCGACATGTCGGCCGACGAACTGAAGTCGGCGCTGAACCGGCTGCGGCGCGCCCAGGGGCAGCTCGCGGGAGTCAT (double strand) [SccsoR-Scrhod intergenic region 261 bp]", "Parameter measured": "binding", "Reading": "binds"}
{"Sequence data": "ACGGCGCGGGGGCGGCGTGAGCAGACGACGAGCACACCCTCTCAATACCCCCCTGGGTATATCTGTTACGGTGGCCGGAAGAGATACCCCAGGGGGTAATTCCGGAAGGA (double strand) [Scpdo promoter f2]", "Parameter measured": "binding", "Reading": "binds"}
{"Sequence data": "GCCAGATAGCTGCGGTTGCCCAGTGACTCGGTCTCCAGGACGTCGACAAAGAACACGGCACGCTCTCCTTCCGGAATTACCCCCTGGGGTATCTCTTCCGGCCACCGTAACAGATATACCCAGGGGGGTATTGAGAGGGTGTGCTCGTCGTCTGCTCACGCCGCCCCCGCGCCGTCGCGGGCCGAGTGCGCCGCCGCTGCGCGCCTGTGCCGCGAGACCCGGGCAACTCCGGTGTACGACGCCGAAGTTGGGGTAC (double strand) [Scpdo promoter 256 bp]", "Parameter measured": "binding", "Reading": "binds"}
{"Sequence data": "AGGACGTCGACAAAGAACACGGCACGCTCTCCTTCCGGAATTACCCCCTGGGGTATCTCTTCCGGCCACCGTAACAGATATACCCAGGGGGGTATTGAGAGGGTGTGC (double strand) [Scpdo promoter f3]", "Parameter measured": "binding", "Reading": "binds"}
{"Sequence data": "TCTGCTCACGCCGCCCCCGCGCCGTCGCGGGCCGAGTGCGCCGCCGCTGCGCGCCTGTGCCGCGAGACCCGGGCAACTCCGGTGTACGACGCCGAAGTTGGGGTAC (double strand) [Scpdo promoter f1]", "Parameter measured": "binding", "Reading": "no binding"}

Qu. Quick one: give measured binding for CGGTGACCTTCTCCGCCCCGTGTTCGGCGGCGAGGCGCACCGCGGCCTCGGCCAGAGCGGCACGTGTGGCCCGCTTCTTCCGCTCCCGCAGACCGCCCCCCGCGGCACCCTTCTCCGACATAAGTTGCATGGTATGCAAAGATGCATGACATGCAAAATTGGCGGGCGCCGACCCCGGAAGGGGATCGGCGCCCGCCGTCGTCGGTGCGGCTCAGGCGGCCAGTCGGGCCAGCGTCTCCTCG (double strand) [sco0622 promoter 242 bp]
Ans. no binding

Qu. Quick one: give measured binding for GCCAGATAGCTGCGGTTGCCCAGTGACTCGGTCTCCAGGACGTCGACAAAGAACACGGCACGCTCTCCTTCCGGAATTACCCCCTGGGGTATCTCTTCCGGCCACCGT (double strand) [Scpdo promoter f4]
Ans. no binding
